# system_name: human collagen type I (acid soluble, extracted from placenta, Sigma C7774) (human) (UniProt P02452)
# Sequence (P02452 162-1218 limits assumed, chain 1 of 2): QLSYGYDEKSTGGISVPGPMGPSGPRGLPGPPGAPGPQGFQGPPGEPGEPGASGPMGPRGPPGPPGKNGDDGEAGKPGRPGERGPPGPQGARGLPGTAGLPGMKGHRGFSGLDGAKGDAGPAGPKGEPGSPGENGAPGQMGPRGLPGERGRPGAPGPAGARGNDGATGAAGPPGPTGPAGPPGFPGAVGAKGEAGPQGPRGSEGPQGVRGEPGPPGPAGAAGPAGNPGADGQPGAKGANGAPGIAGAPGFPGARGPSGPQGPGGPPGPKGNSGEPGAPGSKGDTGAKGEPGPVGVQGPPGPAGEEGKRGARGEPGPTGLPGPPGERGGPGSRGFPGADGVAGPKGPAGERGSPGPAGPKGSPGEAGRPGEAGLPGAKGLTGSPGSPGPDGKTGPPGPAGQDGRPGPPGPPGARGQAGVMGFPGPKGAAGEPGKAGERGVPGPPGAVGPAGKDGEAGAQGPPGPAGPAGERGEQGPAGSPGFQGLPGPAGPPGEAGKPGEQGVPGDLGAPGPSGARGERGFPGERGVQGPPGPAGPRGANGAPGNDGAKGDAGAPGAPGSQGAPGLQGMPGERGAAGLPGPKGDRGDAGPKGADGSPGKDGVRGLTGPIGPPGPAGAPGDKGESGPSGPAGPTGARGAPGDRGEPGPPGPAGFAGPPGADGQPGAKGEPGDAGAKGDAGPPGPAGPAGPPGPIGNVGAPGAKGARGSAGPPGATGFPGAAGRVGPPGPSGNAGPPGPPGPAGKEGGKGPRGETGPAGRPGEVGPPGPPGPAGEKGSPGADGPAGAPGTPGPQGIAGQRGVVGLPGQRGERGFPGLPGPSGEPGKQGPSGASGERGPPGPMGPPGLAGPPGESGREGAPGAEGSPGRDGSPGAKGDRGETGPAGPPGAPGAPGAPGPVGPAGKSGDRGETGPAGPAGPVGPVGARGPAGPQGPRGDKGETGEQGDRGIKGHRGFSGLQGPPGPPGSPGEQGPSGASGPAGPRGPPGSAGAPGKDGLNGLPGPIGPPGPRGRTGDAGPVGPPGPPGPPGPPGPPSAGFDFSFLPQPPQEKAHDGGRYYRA
# Sequence (P08123 80-1119 limits assumed, chain 2 of 2, further chain): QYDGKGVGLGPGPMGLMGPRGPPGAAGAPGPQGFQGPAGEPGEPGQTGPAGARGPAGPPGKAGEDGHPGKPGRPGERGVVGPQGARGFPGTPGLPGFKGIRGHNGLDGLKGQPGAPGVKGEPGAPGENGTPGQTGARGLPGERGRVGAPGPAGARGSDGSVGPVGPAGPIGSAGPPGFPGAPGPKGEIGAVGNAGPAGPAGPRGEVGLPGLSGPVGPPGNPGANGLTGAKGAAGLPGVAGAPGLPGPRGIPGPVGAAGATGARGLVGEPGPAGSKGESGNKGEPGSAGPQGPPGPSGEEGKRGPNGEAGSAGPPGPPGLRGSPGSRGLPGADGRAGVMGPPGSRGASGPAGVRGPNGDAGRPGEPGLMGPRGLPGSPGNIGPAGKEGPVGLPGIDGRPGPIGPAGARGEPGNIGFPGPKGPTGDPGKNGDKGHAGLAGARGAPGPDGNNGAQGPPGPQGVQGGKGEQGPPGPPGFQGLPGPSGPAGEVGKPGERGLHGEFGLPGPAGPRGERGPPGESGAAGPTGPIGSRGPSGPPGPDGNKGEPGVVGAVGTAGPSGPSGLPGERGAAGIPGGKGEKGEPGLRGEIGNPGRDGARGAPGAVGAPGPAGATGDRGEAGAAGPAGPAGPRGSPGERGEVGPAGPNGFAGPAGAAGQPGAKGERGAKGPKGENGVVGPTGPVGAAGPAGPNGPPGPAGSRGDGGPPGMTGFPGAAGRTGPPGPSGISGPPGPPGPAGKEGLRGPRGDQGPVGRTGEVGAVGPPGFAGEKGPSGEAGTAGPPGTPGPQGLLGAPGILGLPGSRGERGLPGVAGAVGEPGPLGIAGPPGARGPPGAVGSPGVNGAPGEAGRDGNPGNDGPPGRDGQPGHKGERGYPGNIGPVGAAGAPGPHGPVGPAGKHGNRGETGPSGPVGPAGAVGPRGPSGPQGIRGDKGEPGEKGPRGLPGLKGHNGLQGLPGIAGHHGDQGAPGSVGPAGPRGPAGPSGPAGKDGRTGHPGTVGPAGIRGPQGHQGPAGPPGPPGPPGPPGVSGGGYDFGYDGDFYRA
# assay_summary: dried collagen assay
Bridge positions count the residues as written; N and C are the ends. Square brackets hold non-standard residues; d marks the D form. Ends that are not written are not given here. Gd^T = not defined here
readout: % bound (%)
One number for each entry, in %.

The following binders have reported results that may help.
binder	% bound [%]
GWSCHGDAADWPCQWS (disulfide 4-13 (inferred)) [SEQ ID NO: 38]	6
{Gd^T}-DWTCS[dL]DEYTWHCNYE (disulfide 4-13 (inferred); not fully specified (C-terminus); reading uncertain) [Comp ID 847]	16

Let us examine a further case.
Exam item: Consider the binder GQWHCTTRFPHHYCAYG (not fully specified; Gd^T-GQWHCTTRFPHHYCAYG) [Comp ID 855] and give its measured % bound.
Marked response: 27
